- Test system: human monocyte-derived dendritic cells (moDCs)
- Assay: DAMP screen: viability of human moDCs (CellTiter-Glo)
- Assay Conditions: 41.3 μM lipid + LPS 1 μg/mL, 2 days; relative to LPS-treated moDCs; Table 1-2
Reported Metric: Relative Viability (%) ± SD
Provide only the numeric value, understood in %.

CCCCCCCCCCCCCCCCCCC(=O)OC[C@@H](O)COP(=O)([O-])OCC[N+](C)(C)C [19:0 LYSO PC] : 39.4
CCCCCCCCCCCCCCCC(=O)O[C@H](COC(=O)CCCCCCCCCCCCC)COP(=O)([O-])OCC[N+](C)(C)C [14:0-16:0 PC] : 97.1
CCCCCCCCCCCCCCCCCC(=O)O[C@H](COC(=O)CCCCCCCCCCCCCCC)COP(=O)([O-])OCC[N+](C)(C)C [16:0-18:0 PC] : 97.7

Exercise: Send back human monocyte-derived dendritic cells (moDCs) Relative Viability (%) ± SD of CCCCCCCCCCCCCCCC(=O)O[C@H](CO)COP(=O)([O-])OCC[N+](C)(C)C [2-16:0 LYSO PC] only.
Solution: 87.2

Data origin: patent US20240197869A1
